biological target: FGFR1 (UniProt P11362); assay: phosphorylation enrichment, bacterial display (enrichment ratio); higher = better substrate or ligand; peptides without Tyr show the background;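 further: 11-residue human phosphosite peptides and single-mutation variants displayed on the E. coli surface, counted by deep sequencing, each peptide's frequency after selection divided by its frequency in the unselected input library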;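 further: frequency after pTyr selection over input frequency; kinase dosed for 20-30% of maximal phosphorylation in three min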
Sequence (P11362 whole entry, looked up): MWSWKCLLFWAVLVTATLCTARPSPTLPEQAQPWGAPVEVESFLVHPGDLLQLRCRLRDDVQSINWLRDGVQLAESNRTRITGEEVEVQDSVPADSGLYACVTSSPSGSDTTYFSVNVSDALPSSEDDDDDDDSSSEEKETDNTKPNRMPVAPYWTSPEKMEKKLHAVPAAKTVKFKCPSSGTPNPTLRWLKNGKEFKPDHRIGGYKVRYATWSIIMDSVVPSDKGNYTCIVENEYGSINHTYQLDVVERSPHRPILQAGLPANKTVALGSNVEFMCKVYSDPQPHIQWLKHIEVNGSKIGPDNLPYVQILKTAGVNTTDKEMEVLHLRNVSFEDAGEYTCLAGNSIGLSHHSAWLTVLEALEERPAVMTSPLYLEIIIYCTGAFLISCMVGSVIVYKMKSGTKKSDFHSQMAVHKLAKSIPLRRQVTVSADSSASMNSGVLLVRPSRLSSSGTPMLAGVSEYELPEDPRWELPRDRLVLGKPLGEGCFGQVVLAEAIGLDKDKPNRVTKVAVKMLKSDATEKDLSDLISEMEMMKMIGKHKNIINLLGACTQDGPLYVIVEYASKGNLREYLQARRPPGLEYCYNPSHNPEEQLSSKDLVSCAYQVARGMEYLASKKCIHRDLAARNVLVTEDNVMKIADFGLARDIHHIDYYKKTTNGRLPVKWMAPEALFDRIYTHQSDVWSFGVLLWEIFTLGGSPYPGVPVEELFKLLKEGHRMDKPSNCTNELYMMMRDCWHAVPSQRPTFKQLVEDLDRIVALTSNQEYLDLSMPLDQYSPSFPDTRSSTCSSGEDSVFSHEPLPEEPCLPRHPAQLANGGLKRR
Categories are defined by ranges of phosphorylation enrichment, namely L = under 0.5, M = from 0.5 up to 0.7, H = 0.7 and over

SEQUENCE	MEASURED ON	LABEL
RNLLIYTEFGK [HGD_Y166_G161R]	FGFR1 (UniProt P11362)	M
MTRDIYETDYY [INSR_Y1185]	FGFR1 (UniProt P11362)	H
GHLYAYDWIRI [BEST1_Y227_S231R]	FGFR1 (UniProt P11362)	H
EPVSDYINASI [PTPN11_Y304_N308S]	FGFR1 (UniProt P11362)	M
LLDGEYFTLQI [TP53_Y327_P322L]	FGFR1 (UniProt P11362)	H
VGQRPYRPLPE [REEP3_Y170_Q171R]	FGFR1 (UniProt P11362)	L
IQRSLYDCPAS [PDGFRA_Y762_R764C]	FGFR1 (UniProt P11362)	M
VDFQPYRKHKF [TEX37_Y28_YF]	FGFR1 (UniProt P11362)	L
LIHTKYPQLLP [AHCY_Y143]	FGFR1 (UniProt P11362)	M
EYFENYIEELK [PARP4_Y218]	FGFR1 (UniProt P11362)	H
VRFMAYTDETF [F8_Y450]	FGFR1 (UniProt P11362)	M
KVVNEYVTKGQ [MYH7_Y410_G407V]	FGFR1 (UniProt P11362)	L
KGNMFYENSFA [EGFR_Y113_R108K_YF]	FGFR1 (UniProt P11362)	L
ACRSLYGGFVE [MVD_Y164]	FGFR1 (UniProt P11362)	M
INASGYRVGPA [ACSM1_Y477_I479V]	FGFR1 (UniProt P11362)	M
LGPSDYFGEIV [PRKAR1A_Y323_A328V]	FGFR1 (UniProt P11362)	H
TVMGLYQKSSL [MYH7_Y609_V606M]	FGFR1 (UniProt P11362)	L
EFQLPYFNMVP [BMPR1A_Y457_YF]	FGFR1 (UniProt P11362)	H
DLQDEYDFKRK [STAT1_Y170_C174R]	FGFR1 (UniProt P11362)	L
SVTCTGSPALN [TP53_Y126_Y126G]	FGFR1 (UniProt P11362)	L
TESALYGCTVL [KIAA1804_Y724]	FGFR1 (UniProt P11362)	M
SVAVPYEPPEV [TP53_Y220_V217A]	FGFR1 (UniProt P11362)	M
NGSFLYVIISQ [LRP1B_Y1988_R1987L]	FGFR1 (UniProt P11362)	L
FTGDIYSNSNL [LZTR1_Y141_YF]	FGFR1 (UniProt P11362)	M
NVVVPYEPPEV [TP53_Y220_S215N]	FGFR1 (UniProt P11362)	L
AAYNRYDQERF [CDC73_Y293]	FGFR1 (UniProt P11362)	M
QKTGDYFDLFG [PTPN11_Y62_N58K_YF]	FGFR1 (UniProt P11362)	H
ALAQKYHGGGG [HBB_Y146_H144Q]	FGFR1 (UniProt P11362)	L
MALDIYRASYY [ALK_Y1278_R1275L]	FGFR1 (UniProt P11362)	M
GRKTLYSFFSP [UNG_Y8_Q4R]	FGFR1 (UniProt P11362)	M
WRPFGYPRRRR [BCS1L_Y181]	FGFR1 (UniProt P11362)	L
LEEFQYIGESQ [MSH2_Y856]	FGFR1 (UniProt P11362)	H
TLLERYGMTEI [ACSF3_Y355]	FGFR1 (UniProt P11362)	L
WIPIQDPIISE [NOG_Y222_Y222D]	FGFR1 (UniProt P11362)	M
VAFLYYKSIGP [ADGRL4_Y302_V300L]	FGFR1 (UniProt P11362)	M
PLRADYLIARV [HLCS_Y635]	FGFR1 (UniProt P11362)	H
DFEGLYQEGGG [TMEM159_Y159_E154D]	FGFR1 (UniProt P11362)	H
KFLENYFDLKK [MMP3_Y41_YF]	FGFR1 (UniProt P11362)	H
FESPRYLQVRI [FANCA_Y488_H492R]	FGFR1 (UniProt P11362)	M
DTFDPYLDVAL [USP36_Y268_YF]	FGFR1 (UniProt P11362)	M
LFMGDYVGRGF [PPP2CA_Y86_D88G_YF]	FGFR1 (UniProt P11362)	H
ISIFHYAKGQP [MPZ_Y82]	FGFR1 (UniProt P11362)	L
IPPRRYFCSGV [STAMBP_Y36_R38C]	FGFR1 (UniProt P11362)	L
NHQYDYTFDWT [CSNK1A1_Y294]	FGFR1 (UniProt P11362)	H
REVPVYIGEDS [SYNM_Y460]	FGFR1 (UniProt P11362)	M
EVKAQNEDIAQ [KRT1_Y358_Y358N]	FGFR1 (UniProt P11362)	M
EMFNPYFGLFE [NEDD4L_Y679_YF]	FGFR1 (UniProt P11362)	H

From: the supplement of paper PMC10065799
